kon values for the binders below.
# MEASURED TARGET: T1, HCV Core 134-171-TT Peptide (hepatitis C virus (HCV-1 numbering) …)
# T1 construct: also called ALRZ-9 peptide
# EXPERIMENT DESCRIPTION: SPR, captured mAb, peptide analyte
A number alone suffices; assume M⁻¹ s⁻¹.

HCV 208B-556 (antibody, V domains shown) VH: QLQQSGPVLVKPGASVMISCKTSGYTFTENAMHWVKQSHGKSLEWIGGVNPNNGDTIFNQKFKGKATLTVDKSSSTAFMEFRSLTSEESTVYYCVRRELDFFDYWGQGTSVTVSS VL: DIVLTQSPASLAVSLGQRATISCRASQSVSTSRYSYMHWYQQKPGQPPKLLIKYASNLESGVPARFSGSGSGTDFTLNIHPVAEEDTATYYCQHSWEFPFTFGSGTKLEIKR: 1.5e+06

Quick one: kon for HCV 208B-174 (antibody, V domains shown) VH: EVKLEESGGGLVQPGGSMKLSCVASGFSFSSYWMSWVRQSPEKGLDWVAEIRLRSDNYATHYAESVKGRFTISRDDSISRLYLQMNTLRAEDTGIYYCTWMTYWGQGTLVTVSA VL: QNVLTQSPAIMSASPGEKVTMSCSASSSVTYMFWYQLKPESSPRLLIYDTSNLASGVPVRFSGSGSGTSYSLTISRMEAEDAATYYCQEWSSYPLTFGAGTKLDLKR ?
760000

Could you share which kon value was measured for HCV 208B-589 (antibody, V domains shown) VH: QVQLQQSGAGLAKPGASVKMSCKASGYTFTANKMHWAKQRPGQGLEWIGYIDPSSGYTEYNHKIQDKATLTADTSSSTAYMQLSSLTFEDSAVYYCTNFAYWGQGTLVTVSA VL: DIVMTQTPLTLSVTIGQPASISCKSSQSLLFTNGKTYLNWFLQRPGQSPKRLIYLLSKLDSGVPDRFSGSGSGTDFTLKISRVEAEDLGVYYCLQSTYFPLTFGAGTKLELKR ?
960000

Cited source: patent US20170052184A1
